assay-name: Selectivity index, ratio of IC50 for cytotoxicity against african green monkey Vero E6 cells to IC50 for ZIKV MR766NIID expressing GFP infected in african green monkey
Type: toxicity, cell-based
condition-notes: read-out: Ratio IC50

item-smiles: CCCCCCCCCCCCCCCCCC(=O)O[C@H]1[C@@H](O[C@H](CO)C(=O)O)O[C@H](CO)[C@@H](O)[C@@H]1OC(=O)C(C)C
selectivity ratio: > 10

* * *

assay-name: Cytotoxicity against african green monkey Vero E6 cells assessed as cell viability incubated for 48 hrs by MTS assay
Type: toxicity, cell-based, Vero C1008
condition-notes: African green monkey (Chlorocebus sabaeus)
Each entry below lists one item and its recorded IC50 at 48 h value.
measured-endpoint: IC50 at 48 h

item-smiles: CCCCCCCCCCCCCCC(=O)O[C@H]1[C@@H](O[C@H](CO)C(=O)O)O[C@H](CO)[C@@H](O)[C@@H]1O
measured-endpoint: IC50 at 48 h
observed-result: > 100 µM
//
item-smiles: CCCCCCCCCCCCCCCCCC(=O)O[C@H]1[C@@H](O[C@H](CO)C(=O)O)O[C@H](CO)[C@@H](O)[C@@H]1OC(=O)C(C)C
measured-endpoint: IC50 at 48 h
observed-result: > 100 µM

Data credit: ChEMBL document CHEMBL6153108
